// values below are reported IC50
# Tested on: MDA-MB-231
# run_description: Cytotoxicity against human MDA-MB-231 cells assessed as growth inhibition after 24 hrs by MTT assay
# Assay type: cell-based
# cond: MDA-MB-231, 24 h

CC(C)=CCC[C@H](C)c1ccc(C)c2c1OCN(CCO)C2: > 20 µM
CCOC(CCN1COc2c([C@@H](C)CCC=C(C)C)ccc(C)c2C1)OCC: > 20 µM
CC(C)=CCC[C@H](C)c1ccc(C)c(CO)c1O: > 20 µM
CCOC(CCNCc1c(C)ccc([C@@H](C)CCC=C(C)C)c1O)OCC: > 20 µM
CC(C)=CCC[C@H](C)c1ccc(C)c2c1OCN(CCCCCO)C2: > 20 µM
CC(C)=CCC[C@H](C)c1ccc(C)c(CNCCCCCO)c1O: > 20 µM

Enquiry: API: value(readout=IC50, system=MDA-MB-231) for record CC(C)=CCC[C@H](C)c1ccc(C)c2c1OCN(CCCCC(=O)O)C2
Return: > 20 µM

Enquiry: Then CC(C)=CCC[C@H](C)c1ccc(C)c(CNCC2CCNCC2)c1O ?
Return: > 20 µM

Enquiry: Proceed to COc1ccc(CCN2COc3c([C@@H](C)CCC=C(C)C)ccc(C)c3C2)cc1OC
Return: > 20 µM

Enquiry: Next: CC(C)=CCC[C@H](C)c1ccc(C)c2c1OCN(CC1CCNCC1)C2
Return: > 20 µM

Enquiry: Proceed to CC(C)=CCC[C@H](C)c1ccc(C)cc1O
Return: > 20 µM

====

# System: SK-MEL-5
# run_description: Cytotoxicity against human SK-MEL-5 cells assessed as cell growth at 10 uM after 48 hrs by SRB assay relative to control
# Type: functional
# cond: SK-MEL-5, 48 h, read-out: Activity
Tick criterion met if growth at 10 µM is 80% or greater. Tick criterion not met if growth at 10 µM is less than 80%.

Illustrative cases are given below, each with its answer.
CC(C)=CCC[C@H](C)c1ccc(C)c2c1OCN(CC1CCNCC1)C2: criterion not met
CC(C)=CCC[C@H](C)c1ccc(C)c(CNCCO)c1O: criterion met
CC(C)=CCC[C@H](C)c1ccc(C)c(CNCCCCCO)c1O: criterion met
CC(C)=CCC[C@H](C)c1ccc(C)c(CO)c1O: criterion met
CC(C)=CCC[C@H](C)c1ccc(C)c2c1OCN(CCCCCO)C2: criterion met
CC(C)=CCC[C@H](C)c1ccc(C)c2c1OCN(CCCCC(=O)O)C2: criterion met
COc1ccc(CCN2COc3c([C@@H](C)CCC=C(C)C)ccc(C)c3C2)cc1OC: criterion not met
CC(C)=CCC[C@H](C)c1ccc(C)cc1O: criterion met

Enquiry: Does CC(C)=CCC[C@H](C)c1ccc(C)c(CNCCCCC(=O)O)c1O have a reported growth at 10 µM of at least 80%?
Return: criterion met

Enquiry: Note, next up: CC(C)=CCC[C@H](C)c1ccc(C)c(CNCC2CCNCC2)c1O
Return: criterion not met

====

# System: HT-29
# run_description: Cytotoxicity against human HT-29 cells assessed as cell growth at 10 uM after 48 hrs by SRB assay relative to control
# Assay type: functional
# cond: HT-29, 48 h, read-out: Activity
The following compounds are shown together with reported growth at 10 µM values.
// note: answer is a bare numeric in %

Please review the following examples before continuing.
CC(C)=CCC[C@H](C)c1ccc(C)c2c1OCN(CCO)C2: 68.7
CC(C)=CCC[C@H](C)c1ccc(C)c2c1OCN(CC1CCNCC1)C2: -68.5
COc1ccc(CCNCc2c(C)ccc([C@@H](C)CCC=C(C)C)c2O)cc1OC: 48.9
CC(C)=CCC[C@H](C)c1ccc(C)cc1O: 103
CC(C)=CCC[C@H](C)c1ccc(C)c2c1OCN(CCCCCO)C2: 27.2
CC(C)=CCC[C@H](C)c1ccc(C)c(CO)c1O: 103

Enquiry: Given the entry CC(C)=CCC[C@H](C)c1ccc(C)c2c1OCN(CCCCC(=O)O)C2 , report its measured growth at 10 µM.
Return: 83.3

Enquiry: // next record CC(C)=CCC[C@H](C)c1ccc(C)c(CNCCO)c1O
Return: 90.6

Enquiry: Now the same for CC(C)=CCC[C@H](C)c1ccc(C)c(CNCCCCC(=O)O)c1O
Return: 101

Enquiry: Also, CC(C)=CCC[C@H](C)c1ccc(C)c(CNCCCCCO)c1O please.
Return: 55

Enquiry: Another: COc1ccc(CCN2COc3c([C@@H](C)CCC=C(C)C)ccc(C)c3C2)cc1OC
Return: -29

Enquiry: Same read-out for CC(C)=CCC[C@H](C)c1ccc(C)c(CNCC2CCNCC2)c1O ?
Return: 8.29

====

# Test system: Malme-3M
# run_description: Cytotoxicity against human MALME-3M cells assessed as cell growth at 10 uM after 48 hrs by SRB assay relative to control
# Type: functional
# cond: read-out: Activity
value_kind: growth at 10 µM (%)
The answer is to be given in %; state only the numeric part.

Recorded results for 5 compounds are shown here.
CC(C)=CCC[C@H](C)c1ccc(C)c2c1OCN(CCCCC(=O)O)C2: 126
CC(C)=CCC[C@H](C)c1ccc(C)c2c1OCN(CCCCCO)C2: 93.7
CC(C)=CCC[C@H](C)c1ccc(C)cc1O: 115
CC(C)=CCC[C@H](C)c1ccc(C)c(CNCCCCCO)c1O: 106
CC(C)=CCC[C@H](C)c1ccc(C)c(CNCC2CCNCC2)c1O: 88

Enquiry: // returns reported growth at 10 µM for input CC(C)=CCC[C@H](C)c1ccc(C)c2c1OCN(CC1CCNCC1)C2
Return: 90

Enquiry: And for CC(C)=CCC[C@H](C)c1ccc(C)c2c1OCN(CCO)C2 ?
Return: 89.5

Enquiry: Follow-up entry: COc1ccc(CCN2COc3c([C@@H](C)CCC=C(C)C)ccc(C)c3C2)cc1OC
Return: -78

Enquiry: Field entry: CC(C)=CCC[C@H](C)c1ccc(C)c(CO)c1O
Return: 110

====

# System: HOP-62
# run_description: Cytotoxicity against human HOP62 cells assessed as cell growth at 10 uM after 48 hrs by SRB assay relative to control
# Assay type: functional
# cond: HOP-62, 48 h, read-out: Activity
value_kind: growth at 10 µM (%)
# unit: % | format: bare number

Recorded growth at 10 µM, per entry:
COc1ccc(CCNCc2c(C)ccc([C@@H](C)CCC=C(C)C)c2O)cc1OC: 89
CC(C)=CCC[C@H](C)c1ccc(C)c(CO)c1O: 99.8
CC(C)=CCC[C@H](C)c1ccc(C)c(CNCCO)c1O: 81

Enquiry: Report growth at 10 µM for CC(C)=CCC[C@H](C)c1ccc(C)c(CNCCCCC(=O)O)c1O please.
Return: 106

Enquiry: Field entry: COc1ccc(CCN2COc3c([C@@H](C)CCC=C(C)C)ccc(C)c3C2)cc1OC
Return: -76

Enquiry: And for CC(C)=CCC[C@H](C)c1ccc(C)cc1O ?
Return: 102

====

# Tested on: M14
# run_description: Cytotoxicity against human M14 cells assessed as cell growth at 10 uM after 48 hrs by SRB assay relative to control
# Format: functional
# cond: M14, 48 h, read-out: Activity
Label key: TRUE means growth at 10 µM under 90%; FALSE means growth at 10 µM of 90% or more.

Solved cases (6 shown):
CC(C)=CCC[C@H](C)c1ccc(C)c(CNCCCCCO)c1O: FALSE
CC(C)=CCC[C@H](C)c1ccc(C)c(CNCCCCC(=O)O)c1O: FALSE
CC(C)=CCC[C@H](C)c1ccc(C)c2c1OCN(CCCCCO)C2: TRUE
CC(C)=CCC[C@H](C)c1ccc(C)c(CO)c1O: FALSE
CC(C)=CCC[C@H](C)c1ccc(C)c2c1OCN(CC1CCNCC1)C2: TRUE
CC(C)=CCC[C@H](C)c1ccc(C)c(CNCCO)c1O: FALSE

Enquiry: Decide: growth at 10 µM of CC(C)=CCC[C@H](C)c1ccc(C)cc1O strictly below 90%?
Return: FALSE

Enquiry: Please give the result for CC(C)=CCC[C@H](C)c1ccc(C)c(CNCC2CCNCC2)c1O too.
Return: TRUE

Enquiry: Likewise for COc1ccc(CCN2COc3c([C@@H](C)CCC=C(C)C)ccc(C)c3C2)cc1OC ?
Return: TRUE

====

List of growth at 10 µM values.
# System: NCI-H322M
# run_description: Cytotoxicity against human NCI-H322M cells assessed as cell growth at 10 uM after 48 hrs by SRB assay relative to control
# Assay type: functional
# cond: read-out: Activity
Give just the numeric value; % need not be written.

The examples below pair each entry with its known result.
CC(C)=CCC[C@H](C)c1ccc(C)c2c1OCN(CCO)C2: 104
CC(C)=CCC[C@H](C)c1ccc(C)c(CNCC2CCNCC2)c1O: 80
CC(C)=CCC[C@H](C)c1ccc(C)c2c1OCN(CC1CCNCC1)C2: 98
CC(C)=CCC[C@H](C)c1ccc(C)c2c1OCN(CCCCC(=O)O)C2: 112
CC(C)=CCC[C@H](C)c1ccc(C)cc1O: 113
COc1ccc(CCNCc2c(C)ccc([C@@H](C)CCC=C(C)C)c2O)cc1OC: 99
CC(C)=CCC[C@H](C)c1ccc(C)c(CNCCCCC(=O)O)c1O: 111
CC(C)=CCC[C@H](C)c1ccc(C)c(CNCCCCCO)c1O: 104

Next:
Enquiry: Would you kindly share the measured growth at 10 µM for COc1ccc(CCN2COc3c([C@@H](C)CCC=C(C)C)ccc(C)c3C2)cc1OC ?
Return: 5
